- test.protocol: metabolic stability, dog microsomes
- Format: in vitro ADME
- stated.conditions: dog, dog microsomes
measured.quantity: half-life (min)
Report the value in min with no unit label.

## Input Fill in the blank: the reported half-life of C[C@]12CC[C@H]3[C@@H](CCC4=CC(=O)CC[C@@]43C)[C@@H]1CC[C@@H]2O [Testosterone, reference compound] is ____.
## Output 59.9

---

- system.tested: GPVI (Homo sapiens, UniProt Q9HCN6)
- Sequence (Q9HCN6 21-267 limits assumed): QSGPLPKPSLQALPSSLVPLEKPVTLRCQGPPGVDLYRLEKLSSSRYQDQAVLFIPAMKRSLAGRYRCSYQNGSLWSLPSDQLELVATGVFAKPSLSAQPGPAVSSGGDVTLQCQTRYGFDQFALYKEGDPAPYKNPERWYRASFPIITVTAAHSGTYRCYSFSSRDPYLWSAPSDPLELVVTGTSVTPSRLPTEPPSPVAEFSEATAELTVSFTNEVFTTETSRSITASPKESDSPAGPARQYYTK
- test.protocol: label-free biophysical binding assay based on dynamic mass redistribution (DMR), immobilized GPVI
- stated.conditions: Compound concentration (10µM); DMR response
Reported interaction with GPVI, Mean by item:
Report the value in pm with no unit label.

Reference set, count: 5
{"compound": "Cc1ccc2nc(NC(=O)Cc3ccc4c(c3)OCCO4)sc2c1 [Ref. compound A, reference compound]", "measured.quantity": "interaction with GPVI, Mean", "unit.string": "pm", "observed.measurement": 1.91}
{"compound": "O=C(Cc1ccc2c(c1)OCCO2)Nc1nc(-c2ccc(Cl)cc2)cs1 [Compound (Ib)]", "measured.quantity": "interaction with GPVI, Mean", "unit.string": "pm", "observed.measurement": 20.47}
{"compound": "O=C(Cc1ccc2c(c1)OCCO2)Nc1nc(-c2ccc3ccccc3c2)cs1 [Compound (Ie)]", "measured.quantity": "interaction with GPVI, Mean", "unit.string": "pm", "observed.measurement": 25.16}
{"compound": "O=C(Cc1ccc2c(c1)OCCO2)Nc1nc(-c2ccccc2)cs1 [Compound (Ia)]", "measured.quantity": "interaction with GPVI, Mean", "unit.string": "pm", "observed.measurement": 19.81}
{"compound": "O=C(Cc1ccc2c(c1)OCCO2)Nc1nc2c(Cl)cccc2s1 [Ref. compound B, reference compound]", "measured.quantity": "interaction with GPVI, Mean", "unit.string": "pm", "observed.measurement": -16.01}

## Input Fill in the blank: the reported interaction with GPVI, Mean of O=C(Cc1ccc2c(c1)OCCO2)Nc1nc(-c2ccc3c(c2)CCCC3)cs1 [Compound (Id)] is ____.
## Output 28.66

## Input Continue with O=C(Cc1ccc2c(c1)OCCO2)Nc1nc(-c2ccc(Br)cc2)cs1 [Compound (Ic)]
## Output 25.42
